- system-name: T1, hAMY3R (human, UniProt P30988)
- T1 sequence 1: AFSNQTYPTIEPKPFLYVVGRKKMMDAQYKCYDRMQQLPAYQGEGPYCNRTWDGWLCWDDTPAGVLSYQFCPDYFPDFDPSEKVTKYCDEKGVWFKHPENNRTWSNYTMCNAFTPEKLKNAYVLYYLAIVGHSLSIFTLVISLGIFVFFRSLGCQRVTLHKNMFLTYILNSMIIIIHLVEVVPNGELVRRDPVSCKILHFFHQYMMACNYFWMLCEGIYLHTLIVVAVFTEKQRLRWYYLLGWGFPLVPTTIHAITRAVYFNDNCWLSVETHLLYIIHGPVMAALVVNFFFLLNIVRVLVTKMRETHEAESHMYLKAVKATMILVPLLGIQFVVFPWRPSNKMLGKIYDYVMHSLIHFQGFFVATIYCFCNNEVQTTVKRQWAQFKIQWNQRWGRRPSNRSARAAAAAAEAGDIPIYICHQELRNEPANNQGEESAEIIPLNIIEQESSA
- T1 sequence 2: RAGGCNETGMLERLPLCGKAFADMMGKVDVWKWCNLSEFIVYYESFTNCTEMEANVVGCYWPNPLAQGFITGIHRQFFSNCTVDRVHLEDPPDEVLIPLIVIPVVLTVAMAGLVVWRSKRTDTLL
- assay-comment: cell-based or functional assay
Numbered stars: 1 amine (or outer) side, 2 acyl side, 3 side chain; on linkers, the order of the positions; unused ones are H or OH. Bridge positions count the residues as written; N and C are the ends. Square brackets hold non-standard residues; d marks the D form. Ends that are not written are not given here. * marks the point of attachment. C20 diacid = O=C(O)CCCCCCCCCCCCCCCCCCC(=O)*; γGlu = O=C(O)[C@H](CCC(=O)[*:2])N[*:1]; Hyp = O=C(O)[C@@H]1C[C@@H](O)CN1; NMeI = CC[C@H](C)[C@H](NC)C(=O)O; Aad = N[C@@H](CCCC(=O)O)C(=O)O; Cit = NC(=O)NCCC[C@H](N)C(=O)O; Sar = CNCC(=O)O
Lab note - cut at 20 pM for hAMY3R EC50 (cAMP): Satisfied if strictly below, Not satisfied if not.

Would you please look over these solved cases?
- {C20 diacid-γGlu}-KCNFATCTVQRLAHQIYQFTDKDKDNVAPRTEVGSNGY-NH2 (disulfide 2-7 (inferred); ends not checked) [SEQ ID NO: 370]: Satisfied
- GCRTGTCTVQRLAHQIYQFTDKDKDNVAPRSNIGPQG[Hyp]-NH2 (disulfide 2-7 (inferred); ends not checked) [SEQ ID NO: 165]: Not satisfied
- KCNTATCATQRLANFLVHSSNNFGAILPSTKVGSNGY [SEQ ID NO: 59]: Satisfied
- GCRTGTCTVQRLAHQIYQFTDKDKDNVAPRTKIGPQG[Hyp]-NH2 (disulfide 2-7 (inferred); ends not checked) [SEQ ID NO: 161]: Not satisfied

Task item: Is the reported hAMY3R EC50 (cAMP) for {C20 diacid-γGlu}-RCGTATCATERLA[Aad]FLQRSSF[Sar]A[NMeI]LSSTEVGSNT[Hyp]-NH2 (disulfide 2-7 (inferred); not fully specified; ends not checked) [SEQ ID NO: 76] strictly below 20 pM?
Reply: Satisfied

Task item: Is the reported hAMY3R EC50 (cAMP) for GCRTGTCTVQ[Cit]LAHQIYQFTDKDKDNVAPRTNVGPQGY-NH2 (disulfide 2-7 (inferred); ends not checked) [SEQ ID NO: 273] strictly below 20 pM?
Reply: Not satisfied

// data source = patent US12139520B2
